Molecular target: human vasopressin V2 receptor subtype (Homo sapiens, UniProt P30518)
Construct: host or cells: CHO cells, stably transfected (pZeoSV vector)
Sequence (P30518 whole entry): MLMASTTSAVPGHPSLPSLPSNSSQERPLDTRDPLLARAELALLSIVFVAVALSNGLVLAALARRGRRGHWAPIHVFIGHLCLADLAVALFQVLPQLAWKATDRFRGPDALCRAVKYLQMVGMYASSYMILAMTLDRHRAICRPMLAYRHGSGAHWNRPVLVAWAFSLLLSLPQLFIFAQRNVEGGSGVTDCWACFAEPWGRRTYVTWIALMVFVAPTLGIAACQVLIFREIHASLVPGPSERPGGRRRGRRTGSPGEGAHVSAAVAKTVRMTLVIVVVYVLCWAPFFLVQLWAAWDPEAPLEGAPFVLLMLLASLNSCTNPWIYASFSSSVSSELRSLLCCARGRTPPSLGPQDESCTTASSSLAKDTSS
Experiment: Vasopressin binding in CHO cell membranes expressing human vasopressin V2 subtype receptors
Conditions: 100 nM, [3H]arginine vasopressin
Metric Name: V2 % inhibition @ 100 nM
Lab note: write values as number then unit, every time.

{"Smiles Code": "Cc1cc(C(=O)N2Cc3ccc(C(=O)NCc4ccncc4)n3Cc3ccccc32)ccc1C1=CCCCC1", "Endpoint Value": "15%"}
{"Smiles Code": "CC1=C(c2ccc(C(=O)N3Cc4ccc(C(=O)N(C)Cc5cccnc5)n4Cc4ccccc43)cc2C)CCC[C@H]1O.O=C(O)C(O)C(O)C(=O)O", "Endpoint Value": "20%"}
{"Smiles Code": "Cc1cc(C(=O)N2Cc3ccc(C(=O)NCCc4ccccn4)n3Cc3ccccc32)ccc1C1=CCCCC1", "Endpoint Value": "6%"}
{"Smiles Code": "CC1=C(c2ccc(C(=O)N3Cc4ccc(C(=O)N(C)Cc5cccnc5)n4Cc4ccccc43)cc2C)CCC[C@H]1O", "Endpoint Value": "7%"}
{"Smiles Code": "Cc1cc(C(=O)N2Cc3ccc(C(=O)N(C)CCc4ccccn4)n3Cc3ccccc32)ccc1C1=CCCCC1", "Endpoint Value": "16%"}
{"Smiles Code": "Cc1cc(C(=O)N2Cc3ccc(C(=O)N4CCN(c5ccccn5)CC4)n3Cc3ccccc32)ccc1C1=CCCCC1", "Endpoint Value": "21%"}

Data request: I'd like to know its V2 % inhibition @ 100 nM. The compound in question is Cc1cc(C(=O)N2Cc3ccc(C(=O)N(C)CCc4ccncc4)n3Cc3ccccc32)ccc1C1=CCCCC1
Data returned: 12%

---

Molecular target: human vasopressin V1a receptor subtype (Homo sapiens)
Sequence (P37288 whole entry): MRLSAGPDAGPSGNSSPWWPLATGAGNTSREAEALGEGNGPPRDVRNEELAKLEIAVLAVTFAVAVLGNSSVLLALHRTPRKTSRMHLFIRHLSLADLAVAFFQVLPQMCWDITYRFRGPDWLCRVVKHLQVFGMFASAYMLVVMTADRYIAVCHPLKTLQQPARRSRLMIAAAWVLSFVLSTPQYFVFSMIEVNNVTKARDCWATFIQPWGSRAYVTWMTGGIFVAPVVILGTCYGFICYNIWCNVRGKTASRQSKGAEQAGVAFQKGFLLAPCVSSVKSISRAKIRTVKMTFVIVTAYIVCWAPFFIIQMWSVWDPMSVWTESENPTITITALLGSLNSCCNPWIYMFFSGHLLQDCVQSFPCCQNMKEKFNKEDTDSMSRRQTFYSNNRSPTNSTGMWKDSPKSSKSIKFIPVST
Metric Name: IC50 (µM)
Give just the numeric value; µM need not be written.

Data request: API: value(readout=IC50, system=human vasopressin V1a receptor subtype (Homo sapiens)) for record COc1cc(C2=CCCCC2)c(Cl)cc1C(=O)N1Cc2ccc(C(=O)N(C)Cc3cccnc3)n2Cc2ccccc21 [Example 2, hemihydrate]
Data returned: 1.32
